Target: 5-hydroxytryptamine receptor 1A (Homo sapiens, UniProt P08908)
Sequence (P08908 whole entry): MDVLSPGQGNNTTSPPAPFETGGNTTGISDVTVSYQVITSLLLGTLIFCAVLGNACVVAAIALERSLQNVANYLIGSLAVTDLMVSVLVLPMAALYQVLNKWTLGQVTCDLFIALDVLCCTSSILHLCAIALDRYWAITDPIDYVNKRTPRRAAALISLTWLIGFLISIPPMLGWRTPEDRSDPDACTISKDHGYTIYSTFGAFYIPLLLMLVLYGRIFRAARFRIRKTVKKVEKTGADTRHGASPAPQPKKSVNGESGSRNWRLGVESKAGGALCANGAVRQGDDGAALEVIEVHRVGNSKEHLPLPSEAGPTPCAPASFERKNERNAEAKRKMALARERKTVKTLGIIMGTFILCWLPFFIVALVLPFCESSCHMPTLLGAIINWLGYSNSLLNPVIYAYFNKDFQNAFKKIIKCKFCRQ
Experiment: Agonist activity at human 5HT1A receptor expressed in CHOK1 cells incubated for 16 hrs followed by forskolin-stimulation and measured after 2 hrs by dual-glo luciferase reporter gene assay
Give log10(EC50) for every item shown.
log10 EC50, µM

>>> assay_result("C/C=C1\\C[N@@+]2([O-])CCc3c([nH]c4ccccc34)[C@@H]2C[C@@H]1[C@H](CO)C(=O)OC")
1.06
>>> assay_result("C=C[C@H]1CN2CC[C@]3(O[C@@H]2C[C@@H]1/C(=C\\OC)C(=O)OC)C(=O)Nc1ccccc13")
1.00

For each of the molecules below, state log10(EC50).
1. COC(=O)C1=CO[C@@H](O[C@@H]2O[C@H](CO)[C@@H](O)[C@H](O)[C@H]2O)[C@@H]2[C@@H]3CN4CCc5c([nH]c6ccccc56)[C@]4(C[C@H]12)O3
2. C=C[C@H]1CN2CCc3c([nH]c4ccccc34)[C@H]2C[C@@H]1[C@@H](CO)C(=O)OC
3. C=C[C@H]1C[N@@+]2([O-])CCc3c([nH]c4ccccc34)[C@H]2C[C@@H]1/C(=C\OC)C(=O)OC
4. COC(=O)C1=CO[C@@H](O[C@@H]2O[C@H](CO)[C@@H](O)[C@H](O)[C@H]2O)[C@H]2[C@@H]1C[C@H]1c3[nH]c4ccccc4c3CCN1C[C@@H]2O
5. CC[C@H]1CN2CC[C@]3(C(=O)Nc4ccccc43)[C@@H]2C[C@@H]1/C(=C\OC)C(=O)OC
6. CC[C@H]1CN2CC[C@@]3(C(=O)Nc4ccccc43)[C@@H]2C[C@@H]1/C(=C\OC)C(=O)OC

Out:
1. 1.01
2. -1.00
3. 1.93
4. 0.20
5. 1.01
6. 0.30
